Reported IC50 values follow for various compounds
tested on: HAP1 MTAP-intact cell line; experiment: SDMA in-cell western assay, HAP1 MTAP-intact; format: cell-based; conditions: Homo sapiens, HAP1, SDMA in-cell western, HAP1 MTAP-intact; read-out: MTAP HAP1 intact IC50
RECORDED ENDPOINT: IC50

{"COMPOUND": "Cc1cc(NC(=O)C(=O)N2CCCC[C@H]2C2CCCC2)cnc1N (single isomer, unassigned)", "RECORDED ENDPOINT": "IC50", "MEASURED RESULT": "> 1000 nM"}
{"COMPOUND": "Cc1cc(NC(=O)C(=O)N2C[C@@H](C)CC[C@@H]2c2ccc3sc(CCN4CCOCC4)nc3c2)cnc1N", "RECORDED ENDPOINT": "IC50", "MEASURED RESULT": "< 100 nM"}
{"COMPOUND": "Cc1cc([C@@H]2CC[C@@H](C)CN2C(=O)C(=O)Nc2cnc(N)c(C)c2)ccc1O (single isomer, unassigned)", "RECORDED ENDPOINT": "IC50", "MEASURED RESULT": "< 100 nM"}
{"COMPOUND": "CCc1cc(NC(=O)C(=O)N2C[C@@H](C)[C@@H](OC(C)C)C[C@@H]2c2ccc3scnc3c2)cnc1N (racemic)", "RECORDED ENDPOINT": "IC50", "MEASURED RESULT": "100 to 1000 nM"}
{"COMPOUND": "Cc1cc(NC(=O)C(=O)N2CCCC[C@H]2C2CCCCC2)cnc1N (single isomer, unassigned)", "RECORDED ENDPOINT": "IC50", "MEASURED RESULT": "> 1000 nM"}
{"COMPOUND": "CCc1cc(NC(=O)C(=O)N2C[C@@H](C)CC[C@@H]2c2ccc(N3CCN(C)CC3)cc2)cnc1N (single isomer, unassigned)", "RECORDED ENDPOINT": "IC50", "MEASURED RESULT": "100 to 1000 nM"}

---

Reported pIC50 values follow for various molecules
biological target: PRMT5 (Homo sapiens); construct: purchased Viva (custom protein); test: PRMT5 biochemical IC50 assay with MTA as cofactor; conditions: PRMT5, MTA as cofactor; read-out: MTA IC50
pIC50: −log10 of the molar value.

{"MOLECULE": "CCc1cc(NC(=O)C(=O)N2C[C@@H](C)CC[C@@H]2c2ccc(-c3nccs3)cc2)cnc1N (single isomer, unassigned)", "pIC50": "< 6.30"}
{"MOLECULE": "CCc1cc(NC(=O)C(=O)N2C[C@@H](C)CC[C@@H]2c2ccc(OCC3CCN(C)CC3)cc2)cnc1N", "pIC50": "> 7.30"}
{"MOLECULE": "COc1ncc(NC(=O)C(=O)N2C[C@H](C)CC[C@H]2c2ccn(-c3cc[nH]n3)n2)cc1C(N)=O (single isomer, unassigned)", "pIC50": "> 7.30"}
{"MOLECULE": "Cc1cc(NC(=O)C(=O)N2C[C@@H](C)CC[C@@H]2c2ccn(-c3cc[nH]n3)n2)cnc1N (single isomer, unassigned)", "pIC50": "< 6.30"}
{"MOLECULE": "C[C@H]1CC[C@H](c2cccnc2)N(C(=O)C(=O)Nc2cncc(C(N)=O)c2)C1 (single isomer, unassigned)", "pIC50": "< 6.30"}
{"MOLECULE": "CCc1cc(NC(=O)C(=O)N2C[C@H](C)CC[C@H]2c2ccc(NC(C)=O)nc2)cnc1N (single isomer, unassigned)", "pIC50": "< 6.30"}
{"MOLECULE": "NC(=O)c1cncc(NC(=O)C(=O)N2CCCCC2C2CCCC2)c1 (stereo not shown)", "pIC50": "> 7.30"}
{"MOLECULE": "COc1ncc(NC(=O)C(=O)N2C[C@@H](C)C(F)(F)C[C@@H]2c2ccc(F)cc2)cc1C(N)=O (single isomer, unassigned)", "pIC50": "< 6.30"}
{"MOLECULE": "CC(=O)N1CCC(c2cccc(C3CCCCN3C(=O)C(=O)Nc3cnc(N)c(C)c3)c2)CC1 (racemic) [Compound 95]", "pIC50": "> 7.30"}
{"MOLECULE": "Cc1nc2cc([C@H]3CC[C@H](C)CN3C(=O)C(=O)Nc3cncc(C(N)=O)c3)ccc2s1 (single isomer, unassigned)", "pIC50": "< 6.30"}
{"MOLECULE": "NC(=O)c1cncc(NC(=O)C(=O)N2C[C@@H](CO)CC[C@@H]2c2ccccc2)c1 (racemic)", "pIC50": "6.30 to 7.30"}
{"MOLECULE": "COc1ncc(NC(=O)C(=O)N2C[C@@H](C)CC[C@@H]2c2ccccc2)cc1C(N)=O (single isomer, unassigned)", "pIC50": "< 6.30"}
{"MOLECULE": "CNC(=O)c1ccc([C@H]2CC[C@H](C)CN2C(=O)C(=O)Nc2cnc(OC)c(C(N)=O)c2)s1 (single isomer, unassigned)", "pIC50": "> 7.30"}

---

biological target: PRMT5 (Homo sapiens, UniProt O14744); construct: purchased Viva (custom protein); experiment: PRMT5 biochemical IC50 assay with SAM as cofactor; details: PRMT5, SAM as cofactor; read-out: SAM IC50
Sequence (O14744 whole entry): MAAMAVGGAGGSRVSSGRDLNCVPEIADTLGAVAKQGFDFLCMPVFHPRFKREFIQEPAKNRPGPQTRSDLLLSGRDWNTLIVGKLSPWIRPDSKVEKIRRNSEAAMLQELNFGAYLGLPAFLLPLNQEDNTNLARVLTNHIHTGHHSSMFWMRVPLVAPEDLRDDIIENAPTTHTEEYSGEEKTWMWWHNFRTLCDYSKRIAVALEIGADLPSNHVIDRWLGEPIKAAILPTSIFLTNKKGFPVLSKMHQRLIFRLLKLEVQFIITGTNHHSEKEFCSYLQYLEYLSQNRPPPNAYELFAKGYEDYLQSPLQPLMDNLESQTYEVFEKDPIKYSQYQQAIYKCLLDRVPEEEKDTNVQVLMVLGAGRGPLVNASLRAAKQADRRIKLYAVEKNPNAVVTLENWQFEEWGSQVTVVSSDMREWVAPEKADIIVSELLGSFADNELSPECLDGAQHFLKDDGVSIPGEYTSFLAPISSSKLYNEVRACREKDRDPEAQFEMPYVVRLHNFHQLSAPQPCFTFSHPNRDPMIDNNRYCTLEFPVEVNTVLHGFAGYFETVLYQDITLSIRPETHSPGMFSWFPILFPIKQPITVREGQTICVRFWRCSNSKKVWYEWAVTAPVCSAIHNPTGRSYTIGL
Sequence (Q9BQA1 whole entry partner): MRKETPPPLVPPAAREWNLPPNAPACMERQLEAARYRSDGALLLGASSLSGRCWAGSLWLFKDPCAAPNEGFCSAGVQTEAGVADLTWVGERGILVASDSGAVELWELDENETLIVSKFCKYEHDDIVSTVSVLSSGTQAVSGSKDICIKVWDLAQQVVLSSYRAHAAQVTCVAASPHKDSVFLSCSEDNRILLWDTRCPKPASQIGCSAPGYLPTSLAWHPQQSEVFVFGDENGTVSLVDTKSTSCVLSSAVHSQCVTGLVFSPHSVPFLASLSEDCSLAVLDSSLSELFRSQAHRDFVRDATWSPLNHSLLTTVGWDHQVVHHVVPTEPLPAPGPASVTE
pIC50: −log10 of the molar value.
RECORDED ENDPOINT: pIC50

{"COMPOUND": "COc1ccc([C@@H]2CC[C@@H](C)CN2C(=O)C(=O)Nc2cncc(C(N)=O)c2)cn1 (racemic)", "MEASURED RESULT": "6.30 to 7.30"}
{"COMPOUND": "Cc1cc(NC(=O)C(=O)N2C[C@@H](C)CC[C@@H]2c2cccc(S(C)(=O)=O)c2)cnc1N (single isomer, unassigned)", "MEASURED RESULT": "< 6.30"}
{"COMPOUND": "C[C@@H]1CC[C@@H](c2ccc3nncn3c2)N(C(=O)C(=O)Nc2cncc(C(N)=O)c2)C1 (racemic)", "MEASURED RESULT": "6.30 to 7.30"}
{"COMPOUND": "CCc1cc(NC(=O)C(=O)N2C[C@@H](C)CC[C@@H]2c2ccc3sc(C4(F)CCN(C)CC4)nc3c2)cnc1N", "MEASURED RESULT": "> 7.30"}
{"COMPOUND": "C[C@@H]1CC[C@@H](c2cc(F)c(F)c(Cl)c2)N(C(=O)C(=O)Nc2cncc(C(N)=O)c2)C1 (single isomer, unassigned)", "MEASURED RESULT": "6.30 to 7.30"}
{"COMPOUND": "CCc1cc(NC(=O)C(=O)N2C[C@@H](C)CC[C@@H]2c2ccc3sc(C4CCN(CC)CC4)nc3c2)cnc1N", "MEASURED RESULT": "6.30 to 7.30"}

---

biological target: PRMT5 (Homo sapiens, UniProt O14744); construct: purchased Viva (custom protein); assay: PRMT5 biochemical IC50 assay with no cofactor; details: PRMT5, no cofactor; read-out: No Cofactor/rel IC50
RECORDED ENDPOINT: IC50

{"COMPOUND": "CNc1ccc([C@H]2CC[C@@H](C)CN2C(=O)C(=O)Nc2cnc(OC)c(C(N)=O)c2)cn1 (single isomer, unassigned) [Compound 467]", "MEASURED RESULT": "> 500 nM"}
{"COMPOUND": "Cc1cc(NC(=O)C(=O)N2CC[C@@H](C#N)C[C@H]2c2ccccc2)cnc1N (single isomer, unassigned) [Compound 399]", "MEASURED RESULT": "50 to 500 nM"}
{"COMPOUND": "Cc1cc(NC(=O)C(=O)N2C[C@H](C)[C@@H](CC(C)C)C[C@H]2c2ccc3scnc3c2)cnc1N (single isomer, unassigned) [Compound 1210]", "MEASURED RESULT": "50 to 500 nM"}
{"COMPOUND": "C[C@@H]1CC[C@@H](c2cccc3[nH]ncc23)N(C(=O)C(=O)Nc2cncc(C(N)=O)c2)C1 (single isomer, unassigned) [Compound 883]", "MEASURED RESULT": "> 500 nM"}
{"COMPOUND": "Cc1cc(NC(=O)C(=O)N2C[C@H](C)CC[C@H]2c2ccc3[nH]ncc3c2)cnc1C (single isomer, unassigned) [Compound 631]", "MEASURED RESULT": "> 500 nM"}
{"COMPOUND": "C[C@@H]1CC[C@@H](c2cc3[nH]ncc3s2)N(C(=O)C(=O)Nc2cncc(C(N)=O)c2)C1 (single isomer, unassigned) [Compound 868]", "MEASURED RESULT": "> 500 nM"}
{"COMPOUND": "C[C@@H]1CC[C@@H](c2cnc3c(c2)CCC(=O)N3)N(C(=O)C(=O)Nc2cncc(C(N)=O)c2)C1 (racemic) [Compound 888]", "MEASURED RESULT": "50 to 500 nM"}
{"COMPOUND": "CC(=O)N1CCC(c2cccc([C@H]3CC[C@H](C)CN3C(=O)C(=O)Nc3cnc(N)c(C)c3)c2)CC1 (single isomer, unassigned) [Compound 324]", "MEASURED RESULT": "< 50 nM"}
{"COMPOUND": "Cc1cc(NC(=O)C(=O)N2C[C@@H](C)CC[C@@H]2c2ccc3sc([C@H]4CCN(C)C(C)(C)C4)nc3c2)cnc1C (single isomer, unassigned) [Compound 1135]", "MEASURED RESULT": "< 50 nM"}
{"COMPOUND": "C[C@@H]1CC[C@@H](c2ccc(O)c(C(C)(C)C)c2)N(C(=O)C(=O)Nc2cncc(C(N)=O)c2)C1 (racemic) [Compound 610]", "MEASURED RESULT": "50 to 500 nM"}
{"COMPOUND": "Cc1cc(NC(=O)C(=O)N2C[C@@H](C)CC[C@@H]2c2ccc(N(C)C3CCN(C)CC3)nc2)cnc1N [Compound 1225]", "MEASURED RESULT": "< 50 nM"}
{"COMPOUND": "COc1ncc(NC(=O)C(=O)N2C[C@H](C)CC[C@H]2c2cncs2)cc1C(N)=O (single isomer, unassigned) [Compound 514]", "MEASURED RESULT": "> 500 nM"}
